System: K-562 leukemia
assay comment: NCI tumour cell line growth inhibition, 48 h
quantity name: TGI (µM)
Give bare numbers, in µM.

Consider the reported TGI for these compounds:
- compound: "COc1cc(-c2cc(/C=C/C(=O)c3ccc(F)c(F)c3)[nH]n2)cc(OC)c1OC"
  value reported: 16.5
- compound: "O=[N+]([O-])c1ccc(C2=Nc3ccccc3S(=O)C(c3ccccc3)C2)cc1 (stereo not drawn)"
  value reported: 34.5
- compound: "CS(=O)(=O)N1CC(CCl)c2ccc(NO)cc21 (stereo not drawn)"
  value reported: 8.58

Now look at this one.
What value of TGI has been reported for the following compound? "COc1cnc2c(c1)C(=O)c1c-2n(CCCNC2=NCCS2)c(=O)c2cc(F)ccc12"
2.92

The origin of these recorded values is PubChem BioAssay (NCI).
